test description: NCI Yeast Anticancer Drug Screen. Data for the cln2 rad14 strain (AID 165)
protocol conditions: S. cerevisiae cln2 rad14 strain, at 50.0 µM (retest, dose inferred, filed as 5.0)
Compounds without any hit were thinned out: in the full panel of roughly 79,000, 15% have a hit. Calls of active or inactive are those of the source. No stated cut-off is given here; in the data, active means growth inhibition above about 70%; inactive means the rest.
Select the correct class. Options are active, inactive and nothing else.

Prompt: Hey, what did the test say about O=C(Nc1cc(Cl)ccc1Oc1cc(Cl)c(Cl)cc1S(=O)(=O)O)Nc1cc(Cl)ccc1Oc1cc(Cl)c(Cl)cc1S(=O)(=O)O ?
Response: inactive

Prompt: Now this one: OC(c1ccccc1)(c1ccccc1)C(F)(Cl)Cl
Response: inactive

Prompt: What do we get for CSC(=S)n1nc(-c2cccs2)c(N=Nc2ccccc2)c1C(F)(F)F ?
Response: active

Prompt: Consider next the molecule Cc1cccc(NC(=O)Oc2ccc(Cl)c3cccnc23)c1 in the same way.
Response: active

Prompt: COC1C(N)C(OC2C(Oc3cccc4c(O)c5c(=O)oc6ccc(C)c7c(=O)oc(c34)c5c67)OC(C)C(O)C2(C)O)OC(C)C1O (stereo not given) , same question.
Response: inactive

Prompt: Can you check COc1ccc(CCC2(C)OCCC(C)O2)cc1 (stereo not given) next?
Response: active

Prompt: Now the same for Cc1nc(C(N)=S)sc1C(=O)C/C(=N/N)C(=O)Nc1cccc(Cl)c1C
Response: inactive

Prompt: How about this molecule: CCC(c1ccccc1)N1C(=O)c2ccccc2S1(=O)=O (stereo not given)
Response: inactive

Prompt: Please give the result for CC(=O)N[C@H]1CCC2[C@@H]3CCC4=CC(=O)NCC[C@]4(C)C3CC[C@@]21C (stereo not given in full) too.
Response: active

Prompt: Entry Cc1c2cnccc2c(C)c2c1sc1ccccc12 please
Response: active
